Please respond with reported pEC50 for every item in the list.
- System: monocistronic NK5.1 HCV replicon in Huh7 cells
- assay.notes: HCV replicon assay, monocistronic replicon cell line
- Assay type: cell-based, hepatitis C virus
- condition.notes: Hepatitis C virus, Huh-7, 72 h; table T3 (compounds 471-640); monocistronic replicon in Huh7 cells, 3 days incubation, HCV RNA/GAPDH RNA by TaqMan RT-PCR; read-out: Mono EC50 Median
pEC50: −log10 of the molar value.

Query string: Output measured pEC50 for this item: CC(C)c1ccc(-c2nc(-c3ncccc3C(F)(F)F)n[nH]2)cc1
Result string: < 4.72

Query string: Find the measured pEC50 of Oc1ccccc1-c1nc(-c2ccc(C(F)(F)F)cn2)n[nH]1 and report it.
Result string: < 4.72

Query string: Could you please provide reported pEC50 for O=[N+]([O-])c1cccc(-c2nc(-c3cnccc3C(F)(F)F)n[nH]2)c1 ? Thanks!
Result string: < 4.49

Query string: Give the value of pEC50 reported for the following: Fc1cc(-c2nc(-c3ncccc3Br)n[nH]2)ccc1-c1ccccc1
Result string: 5.64

Query string: Give a short answer stating reported pEC50 for COc1ccc(O)c(-c2nc(-c3ccc(NC(C)=O)cn3)n[nH]2)c1 .
Result string: 4.38

Query string: Provide measured pEC50 value, entry: Fc1cc(Br)ccc1-c1nc(-c2ncccc2C(F)(F)F)n[nH]1
Result string: < 4.72

Query string: Recall and state the measured pEC50 for Oc1ccc(O)c(-c2nc(-c3ncccn3)n[nH]2)c1 .
Result string: < 4.49

Query string: Supply recorded pEC50 for Fc1cc(Br)ccc1-c1nc(-c2ccc(C(F)(F)F)cn2)n[nH]1 here.
Result string: < 4.72

Query string: Provide pEC50 value for the following compound: CC(=O)Nc1ccc(-c2n[nH]c(-c3cc(Br)ccc3O)n2)nc1
Result string: 4.31

----------
- Test system: monocistronic NK5.1 HCV replicon in Huh7 cells
- assay.notes: HCV replicon assay, monocistronic replicon cell line
- Assay type: cell-based, hepatitis C virus
- condition.notes: Hepatitis C virus, Huh-7, 72 h; table T3 (compounds 471-640); monocistronic replicon in Huh7 cells, 3 days incubation, HCV RNA/GAPDH RNA by TaqMan RT-PCR; read-out: Mono EC50 Median
- From the text: HCV Replicon Assays (Replicon EC50 (μM)) HCV replication can be measured by a replicon assay such as described by Vrolijk et al, J. Virol. Methods 110:201(2003), which is hereby incorporated in its entirety by reference. The method was implemented as follows. Monocistronic Replicon Cell Line: Human hepatocyte Huh7 cells containing the monocistronic NK5.1 replicon were obtained from Ralf Bartenschlager at the University of Mainz, Germany. […]
quantity.kind: EC50 (µM)
Express the result in µM but write the number alone.

Query string: Look up and report measured EC50 for this entry: CCN(CC)c1ccc(-c2nc(-c3cnccn3)n[nH]2)c(O)c1 [Compound 587]
Result string: 23

Query string: Provide one value: measured EC50 of Cc1cccnc1-c1nc(-c2cc(Cl)ccc2O)n(C)n1 [Compound 610]
Result string: 2.5

Query string: Tell me EC50 reported for Oc1ccc(Cl)cc1-c1nc(-c2ncccc2Br)n[nH]1 [Compound 488]
Result string: 2.7

Query string: Please give the documented EC50 of Clc1ccccc1-c1nc(-c2nccc3ccccc23)n[nH]1 [Compound 471]
Result string: 6.1

Query string: Report EC50, nothing else, for this compound: Oc1ccc(Br)cc1-c1nc(-c2cnccn2)n[nH]1 [Compound 582]
Result string: 18

Query string: Give EC50 for Cn1nc(-c2ccccn2)nc1-c1ccc2ccccc2c1O [Compound 606]
Result string: 2.4

Query string: Provide measured EC50 value, entry: Oc1ccccc1-c1ncn(-c2ccccn2)n1 [Compound 629]
Result string: 16

Query string: Quote EC50 reported for Oc1ccc2ccccc2c1-c1nc(-c2ncccc2Br)n[nH]1 [Compound 503] please.
Result string: 6.9

----------
- Test system: monocistronic NK5.1 HCV replicon in Huh7 cells
- assay.notes: HCV replicon assay, monocistronic replicon cell line
- Format: cell-based, hepatitis C virus
- condition.notes: Hepatitis C virus, Huh-7; monocistronic NK5.1 HCV replicon in Huh7 cells; median value; read-out: Mono EC50 Median
- Description: HCV Replicon Assays (Replicon EC50 (μM)) HCV replication can be measured by a replicon assay such as described by Vrolijk et al, J. Virol. Methods 110:201(2003), which is hereby incorporated in its entirety by reference. The method was implemented as follows. Monocistronic Replicon Cell Line: Human hepatocyte Huh7 cells containing the monocistronic NK5.1 replicon were obtained from Ralf Bartenschlager at the University of Mainz, Germany. […]
pEC50: −log10 of the molar value.
Rule: 1 (yes) for pEC50 not less than 5, 0 (no) for anything less.

Query string: Identify whether the reported pEC50 of the following molecule is 5 or greater: COc1ccccc1-c1nnc(-c2ccccc2C(F)(F)F)o1
Result string: 0 (no)

Query string: Hi team, for Cc1cccnc1-c1noc(-c2cc(NC(=O)c3ccccc3)ccc2O)n1 , is the recorded pEC50 at or above 5?
Result string: 1 (yes)

Query string: Check the entry COc1ccc(O)c(-c2noc(-c3ncccc3C)n2)c1 : does pEC50 equal or exceed 5?
Result string: 0 (no)

Query string: Please tell me: is the molecule Brc1cccc(-c2nc(-c3nccc4ccccc34)n[nH]2)c1 at or over 5 in terms of pEC50?
Result string: 0 (no)

Query string: Hi, just wondering whether Cc1ccccc1-c1nnc(-c2ccccn2)o1 shows pEC50 of 5 or higher.
Result string: 0 (no)

Query string: Threshold query (pEC50 >= 5) on Cc1cccnc1-c1n[nH]c(-c2cc(O)ccc2O)n1
Result string: 1 (yes)

Query string: # bool: pEC50 of c1ccc(-c2n[nH]c(-c3cccc4ccccc34)n2)nc1 >= 5
Result string: 0 (no)

Query string: Please indicate if the recorded pEC50 for Oc1ccc(O)c(-c2nc(-c3ccccn3)n[nH]2)c1 meets or exceeds 5.
Result string: 0 (no)

Query string: Hi team, for Fc1ccccc1-c1nnc(-c2ccccn2)o1 , is the recorded pEC50 at or above 5?
Result string: 0 (no)

Query string: Say whether Cc1cccnc1-c1noc(-c2cc(Cl)cc(Br)c2O)n1 shows pEC50 of 5 or more.
Result string: 1 (yes)

Query string: For this molecule, is measured pEC50 5 or higher? Cc1ccccc1-c1nnc(-c2ncccc2C(F)(F)F)o1
Result string: 0 (no)

Query string: Please indicate if the recorded pEC50 for O=[N+]([O-])c1ccccc1-c1nnc(-c2c(O)ccc3ccccc23)o1 meets or exceeds 5.
Result string: 1 (yes)

Query string: Given COc1ccc(O)c(-c2nc(-c3ccccn3)n[nH]2)c1 , state whether its pEC50 is at least 5.
Result string: 1 (yes)

Query string: // inclusive: pEC50 at least 5? input: Oc1ccc2ccccc2c1-c1nnc(-c2ccco2)o1
Result string: 0 (no)

Query string: Check if pEC50 >= 5 (inclusive). Item: Cc1ccc(O)c(-c2nc(-c3ccc(N)cn3)no2)c1
Result string: 0 (no)

Query string: Form field: pEC50 at least 5? Entry: COc1cccc(-c2nc(-c3nccc4ccccc34)n[nH]2)c1
Result string: 0 (no)

Query string: I'd appreciate it if you could say whether CCOc1cccc(-c2nc(-c3ccccn3)n[nH]2)c1O has pEC50 at least equal to 5.
Result string: 0 (no)

Query string: Test whether the molecule Cc1cccnc1-c1n[nH]c(-c2ccc(-c3ccccc3)c(F)c2)n1 records pEC50 of 5 or higher.
Result string: 0 (no)

Query string: Hi, just wondering whether O=[N+]([O-])c1ccc(O)c(-c2nc(-c3nccc4ccccc34)n[nH]2)c1 shows pEC50 of 5 or higher.
Result string: 0 (no)

Query string: Decide: is the reported value of pEC50 for Cc1cccnc1-c1n[nH]c(-c2cc(F)ccc2O)n1 equal to or greater than 5?
Result string: 0 (no)

----------
- System: monocistronic NK5.1 HCV replicon in Huh7 cells
- assay.notes: HCV replicon assay, monocistronic replicon cell line
- Format: cell-based, hepatitis C virus
- condition.notes: Hepatitis C virus, Huh-7; monocistronic NK5.1 HCV replicon in Huh7 cells; median value; read-out: Mono EC50 Median
- Excerpt: HCV Replicon Assays (Replicon EC50 (μM)) HCV replication can be measured by a replicon assay such as described by Vrolijk et al, J. Virol. Methods 110:201(2003), which is hereby incorporated in its entirety by reference. The method was implemented as follows. Monocistronic Replicon Cell Line: Human hepatocyte Huh7 cells containing the monocistronic NK5.1 replicon were obtained from Ralf Bartenschlager at the University of Mainz, Germany. […]
pEC50: −log10 of the molar value.
For each record, write down the corresponding pEC50.

Query string: Tell me its pEC50 given COc1ccc(O)c(-c2nc(-c3ncccc3Br)no2)c1 as the entry.
Result string: < 5.00

Query string: Retrieve pEC50 measured for Fc1ccccc1-c1nnc(-c2cccs2)o1 and print it.
Result string: < 4.49

Query string: Give the measured pEC50 for COc1cccnc1-c1noc(-c2cc(C)ccc2O)n1
Result string: 5.70

Query string: State, in one line, measured pEC50 of Oc1ccccc1-c1nc(-c2cnccc2C(F)(F)F)n[nH]1
Result string: < 4.72

Query string: Please list pEC50 recorded for the compound Fc1ccccc1-c1nnc(-c2ccccc2F)o1
Result string: < 4.49

FYI, the data here is from patent US20050075375A1.
